Sourced from ChEMBL document CHEMBL5528026

system under test: Keap1/Nrf2 (Homo sapiens, UniProt Q14145)
Sequence (Q16236 whole entry): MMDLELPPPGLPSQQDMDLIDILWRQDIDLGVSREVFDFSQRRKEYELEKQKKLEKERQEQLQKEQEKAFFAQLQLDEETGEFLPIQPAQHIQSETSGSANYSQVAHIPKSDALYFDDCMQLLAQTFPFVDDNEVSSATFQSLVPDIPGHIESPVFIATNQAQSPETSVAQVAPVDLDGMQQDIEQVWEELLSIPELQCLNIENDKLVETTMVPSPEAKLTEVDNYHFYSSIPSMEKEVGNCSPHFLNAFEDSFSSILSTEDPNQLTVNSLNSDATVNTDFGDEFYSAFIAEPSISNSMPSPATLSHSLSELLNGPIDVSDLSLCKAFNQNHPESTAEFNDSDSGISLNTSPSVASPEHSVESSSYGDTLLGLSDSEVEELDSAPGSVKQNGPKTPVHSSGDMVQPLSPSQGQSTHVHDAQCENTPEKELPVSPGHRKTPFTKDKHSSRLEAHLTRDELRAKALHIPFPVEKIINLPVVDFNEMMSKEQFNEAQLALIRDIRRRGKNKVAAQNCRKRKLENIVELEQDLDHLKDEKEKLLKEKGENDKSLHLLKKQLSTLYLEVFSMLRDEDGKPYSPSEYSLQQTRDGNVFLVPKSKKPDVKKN
Sequence (Q14145 whole entry): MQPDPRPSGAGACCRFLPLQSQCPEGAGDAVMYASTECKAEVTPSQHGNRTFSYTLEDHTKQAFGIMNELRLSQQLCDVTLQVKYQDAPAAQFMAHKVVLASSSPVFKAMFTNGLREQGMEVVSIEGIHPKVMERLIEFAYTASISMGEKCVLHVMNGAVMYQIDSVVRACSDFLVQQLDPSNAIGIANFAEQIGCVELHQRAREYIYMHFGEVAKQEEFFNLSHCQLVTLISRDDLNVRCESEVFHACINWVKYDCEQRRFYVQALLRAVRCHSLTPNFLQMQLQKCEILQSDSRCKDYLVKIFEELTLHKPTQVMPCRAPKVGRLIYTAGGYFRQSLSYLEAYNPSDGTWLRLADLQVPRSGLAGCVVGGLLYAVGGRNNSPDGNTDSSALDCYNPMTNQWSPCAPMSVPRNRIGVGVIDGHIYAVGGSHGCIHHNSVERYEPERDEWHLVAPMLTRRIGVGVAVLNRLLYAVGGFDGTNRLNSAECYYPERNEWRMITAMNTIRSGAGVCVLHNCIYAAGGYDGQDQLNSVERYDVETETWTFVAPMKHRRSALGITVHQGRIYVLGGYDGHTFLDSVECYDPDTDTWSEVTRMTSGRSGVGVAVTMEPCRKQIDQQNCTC
assay notes: Inhibition of Keap1-Nrf2 protein-protein interaction (unknown origin) assessed as inhibition constant by fluorescence polarization assay
property label: Ki (nM)
Give just the number in nM; leave the unit off.

Name the recorded Ki of the item Cc1ccc(S(=O)(=O)N(CC(=O)O)c2ccc(N(CC(=O)O)S(=O)(=O)c3ccc(C)cc3)c(OCc3ccc(F)cc3)c2)cc1 in your answer.
76.3

Provide Ki value for the following compound: Cc1ccc(S(=O)(=O)N(CC(=O)O)c2ccc(N(CC(=O)O)S(=O)(=O)c3ccc(C)cc3)c(OCC(=O)N3CCOCC3)c2)cc1
116

Given the compound Cc1ccc(S(=O)(=O)N(CC(=O)O)c2ccc(N(CC(=O)O)S(=O)(=O)c3ccc(C)cc3)c(OS(=O)(=O)c3c(C)cc(C)cc3C)c2)cc1 , write its reported Ki.
67.6

Provide measured Ki value, entry: Cc1ccc(S(=O)(=O)N(CC(=O)O)c2ccc(N(CC(=O)O)S(=O)(=O)c3ccc(C)cc3)c(OCCN3C(=O)c4ccccc4C3=O)c2)cc1
30.6

Give the reported Ki for this compound. Cc1ccc(S(=O)(=O)N(CC(=O)O)c2ccc(N(CC(=O)O)S(=O)(=O)c3ccc(C)cc3)c(O[C@@H](C)C(=O)O)c2)cc1
11.6

Tell us which Ki value is on record for Cc1ccc(S(=O)(=O)N(CC(=O)O)c2ccc(N(CC(=O)O)S(=O)(=O)c3ccc(C)cc3)c(CCC(=O)O)c2)cc1
100

Item Cc1ccc(S(=O)(=O)N(CC(=O)O)c2ccc(N(CC(=O)O)S(=O)(=O)c3ccc(C)cc3)c(OCc3nnn[nH]3)c2)cc1 : provide Ki
68

Tell me Ki reported for Cc1ccc(S(=O)(=O)N(CC(=O)O)c2ccc(N(CC(=O)O)S(=O)(=O)c3ccc(C)cc3)c(NCC(=O)O)c2)cc1
351
